biological target: PknB (Mycobacterium tuberculosis, UniProt P9WI81); construct: made in house; assay: biochemical; parameters: species or system M. tuberculosis; conditions: 3 nM PknB, 6 uM GarA, 3 μM ATP, 30 min; competitive tight-binding fit; several symbols in a cell = repeat determinations
Sequence (P9WI81 whole entry): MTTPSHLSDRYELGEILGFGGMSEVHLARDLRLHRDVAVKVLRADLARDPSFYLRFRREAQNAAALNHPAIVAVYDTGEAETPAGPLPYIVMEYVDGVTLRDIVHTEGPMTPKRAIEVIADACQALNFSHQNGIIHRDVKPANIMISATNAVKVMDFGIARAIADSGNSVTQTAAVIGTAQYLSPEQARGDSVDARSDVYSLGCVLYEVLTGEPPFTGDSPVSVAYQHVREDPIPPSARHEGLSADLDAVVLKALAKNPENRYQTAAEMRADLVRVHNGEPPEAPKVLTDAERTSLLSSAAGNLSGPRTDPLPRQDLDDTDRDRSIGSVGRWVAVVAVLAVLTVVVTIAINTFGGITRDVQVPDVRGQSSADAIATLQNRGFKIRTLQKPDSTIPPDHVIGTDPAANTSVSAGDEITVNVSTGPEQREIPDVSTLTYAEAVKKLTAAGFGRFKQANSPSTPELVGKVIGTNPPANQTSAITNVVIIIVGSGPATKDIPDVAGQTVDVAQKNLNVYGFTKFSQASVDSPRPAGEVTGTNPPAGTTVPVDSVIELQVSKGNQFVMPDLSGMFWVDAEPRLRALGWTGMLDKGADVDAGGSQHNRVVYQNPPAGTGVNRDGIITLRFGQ

{"Chemical structure": "C#Cc1cnc(-c2ccccc2)nc1Nc1cc(C2CC2)[nH]n1", "Ki Values": "A*, A"}
{"Chemical structure": "C#Cc1cnc(N2CC[C@@H](NC(=O)OC(C)(C)C)C2)nc1Nc1cc(C2CC2)n[nH]1", "Ki Values": "B, C"}
{"Chemical structure": "O=S(=O)(NCCO)c1ccc(Nc2nccc(Nc3cc(C4CC4)n[nH]3)n2)cc1", "Ki Values": "A**, A*"}
{"Chemical structure": "C[C@H](O)c1ccc(-c2ncc(Cl)c(Nc3cc(C4CC4)[nH]n3)n2)s1", "Ki Values": "A**, A*"}
{"Chemical structure": "CCc1cnc(N2CCCCC2)nc1Nc1cc(C2CC2)[nH]n1", "Ki Values": "C, D"}
{"Chemical structure": "O=C(NC1CCCCC1)c1nccc(Nc2cc(C3CC3)n[nH]2)n1", "Ki Values": "B, B*"}
{"Chemical structure": "N#CCc1ccc(-c2ncc(Cl)c(Nc3cc(C4CC4)[nH]n3)n2)cc1", "Ki Values": "A**, A*"}
{"Chemical structure": "C#Cc1cnc(N2CC[C@@H](NC(C)=O)C2)nc1Nc1cc(C2CC2)n[nH]1", "Ki Values": "B, C"}
{"Chemical structure": "NS(=O)(=O)c1ccc(-c2ncc(C#CCO)c(Nc3cc(C4CC4)[nH]n3)n2)s1", "Ki Values": "A**, A*"}
{"Chemical structure": "OC/C=C/c1cnc(-c2ccccc2)nc1Nc1cc(C2CC2)[nH]n1", "Ki Values": "A, B**, B**"}
{"Chemical structure": "[H]/N=C(\\N)c1ccc(-c2ncc(Cl)c(Nc3cc(C4CC4)[nH]n3)n2)s1", "Ki Values": "A, B**"}
{"Chemical structure": "NS(=O)(=O)c1ccc(-c2ncc(CO)c(Nc3cc(C4CC4)n[nH]3)n2)s1", "Ki Values": "A, B**, B**"}
{"Chemical structure": "CS(=O)(=O)c1ccc(-c2ncc(Cl)c(Nc3cc(C4CC4)[nH]n3)n2)cc1", "Ki Values": "A, B**"}
{"Chemical structure": "Nc1ccc(Nc2nccc(Nc3cc(C4CC4)n[nH]3)n2)cc1", "Ki Values": "A, B**"}

====

pKi overview
biological target: PknB (Mycobacterium tuberculosis); construct: made in house; experiment: biochemical; design: species or system M. tuberculosis; conditions: 3 nM PknB, 6 uM GarA, 3 μM ATP, 30 min; competitive tight-binding fit; several symbols in a cell = repeat determinations; read-out: Ki Values
pKi: −log10 of the molar value.

{"Chemical structure": "CN(CCO)S(=O)(=O)c1ccc(-c2ncc(Cl)c(Nc3cc(C4CC4)[nH]n3)n2)s1", "Study system": "PknB (Mycobacterium tuberculosis)", "pKi": "8.00 to 9.00"}
{"Chemical structure": "COC/C=C/c1cnc(-c2ccccc2)nc1Nc1cc(C2CC2)[nH]n1", "Study system": "PknB (Mycobacterium tuberculosis)", "pKi": "6.00 to 6.30"}
{"Chemical structure": "NS(=O)(=O)c1ccc(-c2ncc(C(F)(F)F)c(Nc3cc(C4CC4)[nH]n3)n2)s1", "Study system": "PknB (Mycobacterium tuberculosis)", "pKi": "6.30 to 7.00"}
{"Chemical structure": "C#Cc1cnc(-c2ccc(CO)s2)nc1Nc1cc(C2CC2)[nH]n1", "Study system": "PknB (Mycobacterium tuberculosis)", "pKi": "7.30 to 8.00"}
{"Chemical structure": "CC(C)(C)NS(=O)(=O)c1ccc(-c2nccc(Nc3cc(C4CC4)[nH]n3)n2)cn1", "Study system": "PknB (Mycobacterium tuberculosis)", "pKi": "7.00 to 7.30"}
{"Chemical structure": "c1ccc(-c2nccc(Nc3cc(C4CC4)n[nH]3)n2)cc1", "Study system": "PknB (Mycobacterium tuberculosis)", "pKi": "7.00 to 7.30"}
{"Chemical structure": "CC(=O)OCCc1cnc(-c2ccc(S(=O)(=O)NC(C)(C)C)s2)nc1Nc1cc(C2CC2)[nH]n1", "Study system": "PknB (Mycobacterium tuberculosis)", "pKi": "6.30 to 7.00"}
{"Chemical structure": "C#Cc1cnc(N2CCN(C)CC2)nc1Nc1cc(C2CC2)[nH]n1", "Study system": "PknB (Mycobacterium tuberculosis)", "pKi": "5.40 to 5.70"}
